experiment: Activation by thiolysis (GSH); format: in vitro ADME; details: 1 mM phosphate buffer, 5 mM GSH, pH 7.4, 37° C.
Parameter measured: Calculated Activation Rate due to Thiolysis (5 mM GSH) (nmol/mL/min)
Kindly provide the numeric value in nmol/mL/min only, without the unit symbol.

> print(dat)
                                   compound   unit.label  recorded.measurement
1  Cc1ccc(OC(=O)N(N(CCCl)S(C)(=O)=O)S(C)(=O)=O)cc1 [Compound 10e]  nmol/mL/min                  0.45
2  C=COC(=O)N(N(CCCl)S(C)(=O)=O)S(C)(=O)=O [Compound 10c]  nmol/mL/min                  2.07
3  COC(=O)N(N(CCCl)S(C)(=O)=O)S(C)(=O)=O [Compound 10a]  nmol/mL/min                  0.02
4  CS(=O)(=O)N(CCCl)N(C(=O)Oc1ccccc1)S(C)(=O)=O [Compound 10d]  nmol/mL/min                  0.37
5  CS(=O)(=O)N(CCCl)N(C(=O)OCCCl)S(C)(=O)=O [Compound 10b]  nmol/mL/min                  0.02

In: Quick one: Calculated Activation Rate due to Thiolysis (5 mM GSH) for COc1ccc(OC(=O)N(N(CCCl)S(C)(=O)=O)S(C)(=O)=O)cc1 [Compound 10g] ?
Out: 0.41

In: Quick one: Calculated Activation Rate due to Thiolysis (5 mM GSH) for CS(=O)(=O)N(CCCl)N(C(=O)Oc1ccc(Cl)cc1)S(C)(=O)=O [Compound 10f] ?
Out: 0.92

In: Quick one: Calculated Activation Rate due to Thiolysis (5 mM GSH) for CS(=O)(=O)N(CCCl)N(C(=O)OCc1ccc([N+](=O)[O-])cc1)S(C)(=O)=O [Compound 10h] ?
Out: 0.06

###

tested on: L1210 leukemia; assay: Survival time and body weight of mice bearing the L1210 leukemia; type: in vivo, mice (CD2 F1); conditions: Table 4; i.p. once daily for 6 days at optimum daily dose (10a 60, 10b 25, 10c 12.5, 10d-h 30 mg/kg)
This section presents compounds with their documented Av Δ wt (average percent change in body weight from onset to termination of therapy) values.
Kindly provide the numeric value in % only, without the unit symbol.

Solved cases below.
> print(dat)
                                   compound  unit.label  recorded.measurement
1  COc1ccc(OC(=O)N(N(CCCl)S(C)(=O)=O)S(C)(=O)=O)cc1 [Compound 10g]           %                  -2.5
2  CS(=O)(=O)N(CCCl)N(C(=O)OCc1ccc([N+](=O)[O-])cc1)S(C)(=O)=O [Compound 10h]           %                  -8.6
3  CS(=O)(=O)N(CCCl)N(C(=O)Oc1ccc(Cl)cc1)S(C)(=O)=O [Compound 10f]           %                  -1.1
4  COC(=O)N(N(CCCl)S(C)(=O)=O)S(C)(=O)=O [Compound 10a]           %                 -10.9
5  C=COC(=O)N(N(CCCl)S(C)(=O)=O)S(C)(=O)=O [Compound 10c]           %                 -12.4
6  CS(=O)(=O)N(CCCl)N(C(=O)Oc1ccccc1)S(C)(=O)=O [Compound 10d]           %                  -1.0
7  CS(=O)(=O)N(CCCl)N(C(=O)OCCCl)S(C)(=O)=O [Compound 10b]           %                 -10.7

Continue with the next compound.
In: Quick one: Av Δ wt (average percent change in body weight from onset to termination of therapy) for Cc1ccc(OC(=O)N(N(CCCl)S(C)(=O)=O)S(C)(=O)=O)cc1 [Compound 10e] ?
Out: -3.0
